# Test system: HL-60(TB) leukemia
# Measurement Notes: NCI tumour cell line growth inhibition, 48 h
Would you kindly list log10 TGI for each of these molecules?
Would you kindly interpret these values as log10 of TGI expressed in µM?

>  <Smiles Text>
CCOC(=O)/C=C(\C(=O)OCC)n1ccc(=O)[nH]c1=O

>  <Data Value>
0.79

$$$$
>  <Smiles Text>
COc1ccc(C(=O)/C=C/c2cc(O)c(O)cc2F)c(OC)c1

>  <Data Value>
0.76

$$$$
>  <Smiles Text>
NC(=S)NN=C1CSSC1

>  <Data Value>
0.83

$$$$
>  <Smiles Text>
N#CCC(=O)N1CCCCCCC1

>  <Data Value>
1.89

$$$$

Next molecule, log10 TGI to be filled in.
## Input Any idea what log10 TGI was measured for O=C(c1ccccc1)c1c(C(F)(F)F)n([O-])c2ccc(C(F)(F)F)cc2[n+]1=O ?
## Output -0.51
